test system: Aerobactin synthetase IucA (Klebsiella pneumoniae, hypervirulent); assay: IucA enzyme inhibition, biochemical, LOPAC library, absorbance readout (AID 1346212); conditions: IucA enzyme assay, absorbance (OD) readout; stronger effect = lower value;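 tested at 8 µM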;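 further: 100% = no compound wells and 0% = no enzyme wells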
Quick list: remaining activity per entry.
The figure you give is taken to be in %; do not add the unit.

Consider the compound CC(C(O)c1ccc(O)cc1)N1CCC(Cc2ccccc2)CC1 (centres undefined) and give its measured remaining activity. 105

Item under review: CC(=O)O[C@H]1C[C@@]2(C)[C@@H](C[C@@H](O)[C@H]3[C@@]4(C)CC[C@@H](O)[C@@H](C)[C@@H]4CC[C@@]32C)/C1=C(\CCC=C(C)C)C(=O)O . Reported remaining activity? 96.1

I am curious: what remaining activity value has been reported for CC(C)Cn1c(=O)n(C)c(=O)c2[nH]cnc21 ? 108

Please report the recorded remaining activity for Fc1ccc(CN(C2=NCCN2)c2c(Cl)cccc2Cl)cc1 . 113

Given Oc1ccc(/C=C/c2cc(O)cc(O)c2)cc1 , state its recorded remaining activity. 75.6

Quick one: remaining activity for N[C@@H](C(=O)N[C@@H]1C(=O)N2C(C(=O)O)=C(Cl)CS[C@H]12)c1ccccc1 ? 120

Item O=C(CCCN1CCC2(CC1)C(=O)NCN2c1ccccc1)c1ccc(F)cc1 has what recorded remaining activity? 121

Consider the compound CC(C)C[C@H](NC(=O)[C@@H](O)[C@H](N)Cc1ccccc1)C(=O)O and give its measured remaining activity. 108

Form field: reported remaining activity of O=C(O)/C(=C/c1c(C(=O)O)[nH]c2cc(Cl)cc(Cl)c12)c1ccccc1 117

# remaining activity lookup, item COc1cc2nc(N3CCN(C(=O)OCc4ccccc4)[C@H](C(=O)NC(C)(C)C)C3)nc(N)c2cc1OC 91.6

Item Cn1c(=O)[nH]c2ncn(C)c2c1=O has what recorded remaining activity? 113

Param item = O=C(c1ccc(Cl)cc1)N1CCN(c2ccc([N+](=O)[O-])c3ncccc23)CC1 ; retrieve measured remaining activity. 120

Entry O=S1(=O)N(CCN2CC=C(c3c[nH]c4cc(F)ccc34)CC2)c2cccc3c2N1CCC3 has what remaining activity? 123

Please look up its remaining activity: Cc1scc2c1N(C(=O)CN1CCN(C)CC1)c1ccccc1NC2=O 105

Request the reported remaining activity associated with O=C(O)CN(CCN(CC(=O)O)CC(=O)O)CCN(CC(=O)O)CC(=O)O 90.9

What value of remaining activity has been reported for the following compound? CC(C)(C)NC(=O)[C@H]1CC[C@H]2[C@@H]3CC[C@H]4NC(=O)C=C[C@]4(C)[C@H]3CC[C@]12C 119
